Molecular target: Methylated-DNA--protein-cysteine methyltransferase (Homo sapiens)
Sequence (P16455 whole entry): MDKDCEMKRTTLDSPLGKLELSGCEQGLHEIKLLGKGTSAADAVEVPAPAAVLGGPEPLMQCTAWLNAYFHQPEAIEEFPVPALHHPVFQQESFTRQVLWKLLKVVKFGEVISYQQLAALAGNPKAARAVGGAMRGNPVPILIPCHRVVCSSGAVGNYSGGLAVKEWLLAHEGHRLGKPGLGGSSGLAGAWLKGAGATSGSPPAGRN
Test: O6-Alkylguanine-DNA Alkyltransferase-Inactivating Activity in Raji cells (Concentration of inactivator required to produce 50% reduction in alkyltransferase activity)
Type: cell-based
Doc: threshold 90 nM (exclusive). Items with IC50 beneath it return fulfilled; others return not fulfilled.

- compound: "NC1=NC(OCc2cncs2)c2[nH]cnc2N1 (configuration not stated)"
  experimental.system: "Methylated-DNA--protein-cysteine methyltransferase (Homo sapiens)"
  group: "fulfilled"
- compound: "NC1=Nc2nc[nH]c2C(OCc2ccncc2)N1 (configuration not stated)"
  experimental.system: "Methylated-DNA--protein-cysteine methyltransferase (Homo sapiens)"
  group: "not fulfilled"
- compound: "Cn1cncc1COC1N=C(N)Nc2[nH]cnc21 (configuration not stated)"
  experimental.system: "Methylated-DNA--protein-cysteine methyltransferase (Homo sapiens)"
  group: "not fulfilled"
- compound: "NC1=Nc2nc[nH]c2C(OCc2cccnc2)N1 (configuration not stated)"
  experimental.system: "Methylated-DNA--protein-cysteine methyltransferase (Homo sapiens)"
  group: "not fulfilled"
- compound: "NC1=NC(OCc2cncc(Br)c2)c2[nH]cnc2N1 (configuration not stated)"
  experimental.system: "Methylated-DNA--protein-cysteine methyltransferase (Homo sapiens)"
  group: "not fulfilled"
- compound: "NC1=Nc2nc[nH]c2C(OCc2ccc(Br)s2)N1 (configuration not stated)"
  experimental.system: "Methylated-DNA--protein-cysteine methyltransferase (Homo sapiens)"
  group: "fulfilled"
